- Tested on: Clostridium tertium
- procedure_details: Antibacterial activity against beta-lactamase producing Clostridium tertium assessed as resistant isolates by CLSI agar dilution method
- Type: functional
Examples of compounds with documented Activity follow.
test_readout: Activity (%)

INSERT INTO assay_data (compound, test_readout, experimental_value) VALUES
  ('O=C(N[C@H](CO)[C@H](O)c1ccc([N+](=O)[O-])cc1)C(Cl)Cl [CHLORAMPHENICOL]', 'Activity', 0),
  ('C[C@@H](O)[C@H]1C(=O)N2C(C(=O)O)=C(SCCNC=N)C[C@H]12 [IMIPENEM ANHYDROUS]', 'Activity', 4),
  ('C[C@@H](O)[C@H]1C(=O)N2C(C(=O)O)=C(S[C@@H]3CN[C@H](C(=O)Nc4cccc(C(=O)O)c4)C3)[C@H](C)[C@H]12', 'Activity', 0),
  ('C[C@@H](O)[C@H]1C(=O)N2C(C(=O)O)=C(S[C@@H]3CN[C@H](C(=O)N(C)C)C3)[C@H](C)[C@H]12 [MEROPENEM]', 'Activity', 0),
  ('Cc1ncc([N+](=O)[O-])n1CCO [METRONIDAZOLE]', 'Activity', 11),
  ('CO[C@@]1(NC(=O)CSCC#N)C(=O)N2C(C(=O)O)=C(CSc3nnnn3C)CS[C@@H]21 [CEFMETAZOLE]', 'Activity', 0),
  ('CCC[C@@H]1C[C@@H](C(=O)N[C@@H]([C@H]2O[C@H](SC)[C@H](O)[C@@H](O)[C@H]2O)[C@H](C)Cl)N(C)C1 [CLINDAMYCIN]', 'Activity', 14),
  ('CCN1CCN(C(=O)N[C@@H](C(=O)N[C@@H]2C(=O)N3[C@@H]2SC(C)(C)[C@@H]3C(=O)O)c2ccccc2)C(=O)C1=O [PIPERACILLIN]', 'Activity', 0),
  ('C[C@@H](O)[C@H]1C(=O)N2C(C(=O)O)=C(S[C@@H]3CN[C@H](CNS(N)(=O)=O)C3)[C@H](C)[C@H]12 [DORIPENEM]', 'Activity', 0);
